biological target: plasmin (from human plasma) (Homo sapiens, UniProt P00747); test: Selectivity: plasmin inhibition, substrate Biophen CS-21(66); details: 15 min preincubation; Tris buffer pH 7.4; 580 μM substrate
Sequence (P00747 581-810 limits assumed): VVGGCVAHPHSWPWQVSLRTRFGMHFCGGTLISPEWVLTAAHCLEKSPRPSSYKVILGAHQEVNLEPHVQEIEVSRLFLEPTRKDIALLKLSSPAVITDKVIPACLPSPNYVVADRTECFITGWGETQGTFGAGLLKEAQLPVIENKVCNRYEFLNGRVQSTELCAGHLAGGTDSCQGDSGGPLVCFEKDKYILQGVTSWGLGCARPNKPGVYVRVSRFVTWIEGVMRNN
Sequence (P00747 97-580 partner limits assumed): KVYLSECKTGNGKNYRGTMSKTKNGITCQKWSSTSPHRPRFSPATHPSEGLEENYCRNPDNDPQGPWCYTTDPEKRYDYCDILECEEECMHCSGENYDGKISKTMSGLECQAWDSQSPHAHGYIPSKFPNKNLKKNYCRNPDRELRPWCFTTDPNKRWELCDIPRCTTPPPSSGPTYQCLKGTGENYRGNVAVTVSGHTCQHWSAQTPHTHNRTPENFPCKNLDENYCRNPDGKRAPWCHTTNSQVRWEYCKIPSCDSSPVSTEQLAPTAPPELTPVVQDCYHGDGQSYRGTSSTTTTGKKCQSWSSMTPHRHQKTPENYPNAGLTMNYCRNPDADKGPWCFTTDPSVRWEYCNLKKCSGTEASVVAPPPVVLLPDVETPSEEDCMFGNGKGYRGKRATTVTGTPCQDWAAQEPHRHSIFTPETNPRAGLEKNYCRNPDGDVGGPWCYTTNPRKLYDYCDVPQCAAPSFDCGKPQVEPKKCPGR
Okay, here is how we bin by IC50: class A: < 4 µM; class B: ≥ 4 µM and < 6 µM; class C: ≥ 6 µM

Please review the following examples before continuing.
1) CCN(CC)c1ccc2c(-c3ccccc3C(=O)N3CCN(C(=O)CCCCCCCn4cc(CCCOC(=O)NC(Cc5ccc(NC(=N)N)cc5)P(=O)(Oc5ccc(NC(C)=O)cc5)Oc5ccc(NC(C)=O)cc5)nn4)CC3)c3ccc(=[N+](CC)CC)cc-3oc2c1.O=C(O)C(F)(F)F.[Cl-] (stereo not drawn) [Final compound 5]
class B
2) CCN(CC)c1ccc2c(-c3ccccc3C(=O)N3CCN(C(=O)CCCCCCCn4cc(COCCOCCOC(=O)NC(Cc5ccc(NC(=N)N)cc5)P(=O)(Oc5ccccc5)Oc5ccccc5)nn4)CC3)c3ccc(=[N+](CC)CC)cc-3oc2c1 (stereo not drawn) [Final compound 2]
class B
3) C#CCCCOC(=O)NC(Cc1ccc(NC(=N)N)cc1)P(=O)(Oc1ccccc1)Oc1ccccc1.O=C(O)C(F)(F)F (stereo not drawn) [Intermediate 58, 2,2,2-trifluoroacetate]
class A
4) CC1=CC(C)=[N+]2C1=C(CCCCCCCn1cc(CCCOC(=O)NC(Cc3ccc(NC(=N)N)cc3)P(=O)(Oc3ccccc3)Oc3ccccc3)nn1)c1c(C)cc(C)n1[B-]2(F)F.O=C(O)C(F)(F)F (stereo not drawn) [Final compound 6]
class A
5) N=C(N)Nc1ccc(CC(NC(=O)OCCCc2cn(CCOCCOCCOCCNC(=O)CCCC[C@@H]3SC[C@@H]4NC(=O)N[C@@H]43)nn2)P(=O)(Oc2ccccc2)Oc2ccccc2)cc1.O=C(O)C(F)(F)F (stereo partly drawn) [Final compound 7, 2,2,2-trifluoroacetate]
class B
6) O=C(O)C(F)(F)F.[N-]=[N+]=NCCOCCOCCOCCOC(=O)NC(Cc1ccc(NC(=N)N)cc1)P(=O)(Oc1ccccc1)Oc1ccccc1 (stereo not drawn) [Intermediate 62, 2,2,2-trifluoroacetate]
class C

Which category fits this record: C#CCOCCOC(=O)NC(Cc1ccc(NC(=N)N)cc1)P(=O)(Oc1ccccc1)Oc1ccccc1.O=C(O)C(F)(F)F (stereo not drawn) [Intermediate 55]
class C

Where would O=C(O)C(F)(F)F.[N-]=[N+]=NCCCCCCOC(=O)NC(Cc1ccc(NC(=N)N)cc1)P(=O)(Oc1ccccc1)Oc1ccccc1 (stereo not drawn) [Intermediate 59, 2,2,2-trifluoroacetate] land among the classes by reported IC50?
class A

---

target: uPA (Homo sapiens, UniProt P00749); construct: purchased Nodia; assay: uPA inactivation kinetics from progress curves (kobs versus inhibitor concentration, kapp); type: biochemical; conditions: asterisked: compound showed a two-step mechanism, kapp calculated as k2/K1; 250 μM substrate; 37° C.
REPORTED ENDPOINT: uPA: kapp

// below: answered molecules
1) O=C(O)C(F)(F)F.[N-]=[N+]=NCCOCCOCCOCCOC(=O)NC(Cc1ccc(NC(=N)N)cc1)P(=O)(Oc1ccccc1)Oc1ccccc1 (stereo not shown) [Intermediate 62]
9 × 10^3 ± 4 × 10^3 * M^−1 s^−1
2) C#CCCCOC(=O)NC(Cc1ccc(NC(=N)N)cc1)P(=O)(Oc1ccccc1)Oc1ccccc1.O=C(O)C(F)(F)F (stereo not shown) [Intermediate 58]
30 × 10^3 ± 9 × 10^3 * M^−1 s^−1

I would be grateful if you could provide uPA: kapp for each of the following entries.
1. O=C(O)C(F)(F)F.[N-]=[N+]=NCCCCCCOC(=O)NC(Cc1ccc(NC(=N)N)cc1)P(=O)(Oc1ccccc1)Oc1ccccc1 (stereo not shown) [Intermediate 59]
2. CC1=CC(C)=[N+]2C1=C(CCCCCCCn1cc(CCCOC(=O)NC(Cc3ccc(NC(=N)N)cc3)P(=O)(Oc3ccccc3)Oc3ccccc3)nn1)c1c(C)cc(C)n1[B-]2(F)F.O=C(O)C(F)(F)F (stereo not shown) [Final compound 6]
3. CCN(CC)c1ccc2c(-c3ccccc3C(=O)N3CCN(C(=O)CCCCCCCn4cc(CCCOC(=O)NC(Cc5ccc(NC(=N)N)cc5)P(=O)(Oc5ccc(NC(C)=O)cc5)Oc5ccc(NC(C)=O)cc5)nn4)CC3)c3ccc(=[N+](CC)CC)cc-3oc2c1.O=C(O)C(F)(F)F.[Cl-] (stereo not shown) [Final compound 5]
4. O=C(O)C(F)(F)F.[N-]=[N+]=NCCOCCOC(=O)NC(Cc1ccc(NC(=N)N)cc1)P(=O)(Oc1ccccc1)Oc1ccccc1 (stereo not shown) [Intermediate 60]
5. O=C(O)C(F)(F)F.[N-]=[N+]=NCCOCCOCCOC(=O)NC(Cc1ccc(NC(=N)N)cc1)P(=O)(Oc1ccccc1)Oc1ccccc1 (stereo not shown) [Intermediate 61]
6. C#CCOCCOCCOC(=O)NC(Cc1ccc(NC(=N)N)cc1)P(=O)(Oc1ccccc1)Oc1ccccc1.O=C(O)C(F)(F)F (stereo not shown) [Intermediate 56]
7. C#CCCCOC(=O)NC(Cc1ccc(NC(=N)N)cc1)P(=O)(Oc1ccc(NC(C)=O)cc1)Oc1ccc(NC(C)=O)cc1 (stereo not shown) [Intermediate 63]
8. C#CCOCCOC(=O)NC(Cc1ccc(NC(=N)N)cc1)P(=O)(Oc1ccccc1)Oc1ccccc1.O=C(O)C(F)(F)F (stereo not shown) [Intermediate 55]

14 × 10^3 ± 3 × 10^3 * M^−1 s^−1
12.2 × 10^2 ± 0.5 × 10^2 * M^−1 s^−1
52 × 10^2 ± 1 × 10^2 * M^−1 s^−1
19 × 10^3 ± 8 × 10^3 * M^−1 s^−1
10 × 10^3 ± 4 × 10^3 * M^−1 s^−1
12 × 10^3 ± 5 × 10^3 * M^−1 s^−1
40 × 10^3 ± 8 × 10^3 * M^−1 s^−1
19 × 10^3 ± 4 × 10^3 * M^−1 s^−1

# batch size: 3; output uPA: kapp per entry
1. C#CCOCCOCCOCCOC(=O)NC(Cc1ccc(NC(=N)N)cc1)P(=O)(Oc1ccccc1)Oc1ccccc1.O=C(O)C(F)(F)F (stereo not shown) [Intermediate 57]
2. N=C(N)Nc1ccc(CC(NC(=O)OCCCc2cn(CCOCCOCCOCCNC(=O)CCCC[C@@H]3SC[C@@H]4NC(=O)N[C@@H]43)nn2)P(=O)(Oc2ccccc2)Oc2ccccc2)cc1.O=C(O)C(F)(F)F (stereo partly shown) [Final compound 7]
3. Cl.N=C(N)Nc1ccc(CC(NC(=O)OCCCc2cn(CCOCCOCCOCCNC(=O)c3ccc(F)cc3)nn2)P(=O)(Oc2ccccc2)Oc2ccccc2)cc1 (stereo not shown) [Final compound 8]

["11 × 10^3 ± 4 × 10^3 * M^−1 s^−1", "86 × 10^2 ± 10 × 10^2 * M^−1 s^−1", "68 × 10^2 ± 25 × 10^2 * M^−1 s^−1"]
